Experiment: chemical genetic growth profiling, strain panel (AID 1159580);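 note: tested at 20 µM; growth read once vehicle control cultures reached saturation at 30 °C; 1 = growth at the plate median or of vehicle wells; lower values mean less growth of the strain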
Details: S. cerevisiae deletion strains, growth OD, locus YCL069W, strain vba3, active compounds read low
Hit rate of the full screen: of about 5,500 compounds, about 2,000 (36%) were called active. Roughly 18% stayed inconclusive and do not appear here. This is one part of the list.
Quick list: normalized growth per entry.
Enter a number only.

Observe how each entry below is paired with its result.
COc1cc(/C=C/C(=O)O)cc(OC)c1OC ... 0.992
NCc1ccc(S(N)(=O)=O)cc1 ... 0.994
CCOc1ccc2c(c1)C(C)=CC(C)(C)N2 ... 0.987
Nc1ccc(S(=O)(=O)Nc2nccs2)cc1 ... 1.01
CC1=C(/C=C/C(C)=C/C=C/C(C)=C\C(=O)O)C(C)(C)CCC1 ... 0.986

For the next question, use this molecule.
Return reported normalized growth; argument: O=C(O)c1ccc2c(c1)OCO2
0.984
